System: MIA PaCa-2
Test: Cytotoxicity against human MIA PaCa-2 cells assessed as inhibition of cell growth incubated for 7 days in glucose-containing medium by MTT assay
Format: functional, cell-based
Details: MIA PaCa-2, 168 h
observationType: IC50

These recorded examples may help you get a feel for the data.
Which IC50 is reported with MIA PaCa-2 for this entry: "CCN(CC)S(=O)(=O)c1ccc(S(=O)(=O)N2CCC[C@@H](C(=O)NC)C2)cc1" ? 8.6 µM

Which IC50 is reported with MIA PaCa-2 for this entry: "CCN(CC)S(=O)(=O)c1ccc(S(=O)(=O)N2CCC[C@@H](C(=O)N3CCN(c4nc(C)no4)CC3)C2)cc1" ? 0.25 µM

Which IC50 is reported with MIA PaCa-2 for this entry: "CC(C)c1noc(C2CCN(C(=O)[C@@H]3CCCN(S(=O)(=O)c4ccc(S(=O)(=O)C(C)C)cc4)C3)CC2)n1" ? 0.05 µM

Which IC50 is reported with MIA PaCa-2 for this entry: "CCOC(=O)[C@@H]1CCCN(S(=O)(=O)c2ccc(S(=O)(=O)N3CCCCC3)cc2)C1" ? 2.9 µM

Kindly give each listed record's IC50.
1. CCN1CC(NC(=O)[C@@H]2CCCN(S(=O)(=O)c3ccc(S(=O)(=O)N(CC)CC)cc3)C2)C1
2. CCOC(=O)C1CN(S(=O)(=O)c2ccc(S(=O)(=O)N(CC)CC)cc2)C1
3. CCOC(=O)[C@@H]1C[C@@H](O)CN(S(=O)(=O)c2ccc(S(=O)(=O)N(CC)CC)cc2)C1 (relative stereo)
4. CCOC(=O)[C@@H]1CCCN(S(=O)(=O)c2ccc(C(=O)N(CC)CC)cc2)C1

1. > 30 µM
2. 13.9 µM
3. 7.9 µM
4. 0.8 µM

* * *

System: MIA PaCa-2
Assay: Cytotoxicity against human MIA PaCa-2 cells assessed as inhibition of cell growth incubated for 3 days in glucose-containing medium by MTT assay
Assay type: functional, cell-based
Conditions: MIA PaCa-2, 72 h
For each record, write down the corresponding pIC50.
Give bare numbers, as −log10 of the molar value.

Kindly give each listed record's pIC50.
1. CCN(CC)C(=O)[C@@H]1CCCN(S(=O)(=O)c2ccc(S(=O)(=O)N(CC)CC)cc2)C1
2. CCN(CC)S(=O)(=O)c1ccc(S(=O)(=O)N2CCC[C@@H](C(=O)N3CCN(c4nnc(C(C)C)o4)CC3)C2)cc1
3. CCN(CC)S(=O)(=O)c1ccc(S(=O)(=O)N2CCC[C@@H](C(=O)N3CCN(c4nc(C(F)(F)F)no4)CC3)C2)cc1
4. CCOC(=O)[C@@H]1CCCN(S(=O)(=O)c2ccc(S(=O)(=O)N3CCOCC3)cc2)C1

6.15
6.00
7.22
5.39

Kindly give each listed record's pIC50.
1. CCN(CC)C(=O)c1ccc(S(=O)(=O)N2CCC[C@@H](C(=O)N3CCN(c4nc(C(C)C)no4)CC3)C2)cc1
2. CCN(CC)S(=O)(=O)c1ccc(S(=O)(=O)N2CCC[C@@H](C(=O)N3CC4(CN(C(=O)OC(C)(C)C)C4)C3)C2)cc1
3. CCOC(=O)[C@@H]1CCCN(S(=O)(=O)c2ccc(S(=O)(=O)N(CC)CC)cc2)C1
4. CCOC(=O)[C@@H]1CCCN(S(=O)(=O)c2ccc(S(=N)(=O)N(CC)CC)cc2)C1 (stereo partly specified)
5. CCNS(=O)(=O)c1ccc(S(=O)(=O)N2CCC[C@@H](C(=O)N3CCN(c4nc(C(C)C)no4)CC3)C2)cc1
6. CCN(CC)S(=O)(=O)c1ccc(S(=O)(=O)N2CCC[C@@H](C(=O)NC3CC3)C2)cc1
7. CCOC(=O)[C@@H]1CCN(S(=O)(=O)c2ccc(S(=O)(=O)N(CC)CC)cc2)C1

1: 7.15; 2: 6.52; 3: 7.05; 4: 6.05; 5: 6.70; 6: 5.96; 7: 5.82

Kindly give each listed record's pIC50.
1. CCN(CC)S(=O)(=O)c1ccc(S(=O)(=O)N2CCC[C@@H](c3cc(C)no3)C2)cc1
2. CCN(CC)S(=O)(=O)c1ccc(S(=O)(=O)N2CCC[C@@H](C(=O)NC3CN(C(=O)C4CC4)C3)C2)cc1
3. CC(C)c1noc(N2CCN(C(=O)[C@@H]3CCCN(S(=O)(=O)c4ccc(S(=O)(=O)NC5CC5)cc4)C3)CC2)n1

1. 5.57
2. 5.51
3. 6.52

Which pIC50 is reported with MIA PaCa-2 for this entry: "CC(C)c1noc(N2CCN(C(=O)[C@@H]3CCCN(S(=O)(=O)c4ccc(S(=O)(=O)C5CCC5)cc4)C3)CC2)n1" ? 7.70

* * *

Test: Microsomal stability in mouse liver microsomes assessed as half life at 10 uM measured upto 60 mins by LC-MS/MS analysis
Type: ADME, Microsome
Conditions: microsomes, 1 h, 10 µM
For each record, write down the corresponding t1/2.
One number for each entry, in min.

These recorded examples may help you get a feel for the data.
t1/2 for "CCOC(=O)[C@@H]1CCCN(S(=O)(=O)c2ccc(S(=O)(=O)N(CC)CC)cc2)C1" ? 0.7

t1/2 for "CC(C)c1noc(C2CCN(C(=O)[C@@H]3CCCN(S(=O)(=O)c4ccc(S(=O)(=O)C(C)C)cc4)C3)CC2)n1" ? 32.58

Turning to the following compound.
t1/2 for "CCN(CC)S(=O)(=O)c1ccc(S(=O)(=O)N2CCC[C@@H](C(=O)NC3COC3)C2)cc1" ? 27.1

* * *

Test: Microsomal stability in mouse liver microsomes assessed as half life at 10 uM measured upto 60 mins by LC-MS/MS analysis
Assay type: ADME, Microsome
Conditions: liver microsomes
observationType: half-life at 10 µM

half-life at 10 µM for "CC(C)c1noc(N2CCN(C(=O)[C@@H]3CCCN(S(=O)(=O)c4ccc(S(=O)(=O)C(C)C)cc4)C3)CC2)n1" ? > 1 h

* * *

For each record, write down the corresponding IC50.
Tested on: MIA PaCa-2
Assay: Cytotoxicity against human MIA PaCa-2 cells assessed as inhibition of cell growth incubated for 3 days in glucose-containing medium by MTT assay
Format: functional, cell-based
Settings: MIA PaCa-2, 72 h

IC50 for "CCOC(=O)[C@@H]1CCCN(S(=O)(=O)c2ccc(S(=O)(=O)N(CC)C(C)C)cc2)C1" ? 1200 nM

IC50 for "CC(C)NS(=O)(=O)c1ccc(S(=O)(=O)N2CCC[C@@H](C(=O)N3CCN(c4nc(C(C)C)no4)CC3)C2)cc1" ? 200 nM

IC50 for "CCOC(=O)N1CCC[C@@H](S(=O)(=O)c2ccc(S(=O)(=O)N(CC)CC)cc2)C1" ? > 10000 nM

IC50 for "CCN(CC)S(=O)(=O)c1ccc(S(=O)(=O)N2CCC[C@@H](C(=O)NC3COC3)C2)cc1" ? 900 nM

IC50 for "CCOC(=O)[C@H]1CCN(S(=O)(=O)c2ccc(S(=O)(=O)N(CC)CC)cc2)C1" ? > 10000 nM

IC50 for "CCN(CC)S(=O)(=O)c1ccc(S(=O)(=O)N2CCC[C@@H](C(=O)NC3CN(C(=O)OC(C)(C)C)C3)C2)cc1" ? 100 nM

Kindly give each listed record's IC50.
1. CCOC(=O)[C@@H]1CCCN(S(=O)(=O)c2ccc(S(=O)(=O)N(CC)CC)cn2)C1
2. CCOC(=O)[C@@H]1C[C@H](O)CN(S(=O)(=O)c2ccc(S(=O)(=O)N(CC)CC)cc2)C1 (relative stereo)
3. CCOC(=O)[C@@H]1CCCN(S(=O)(=O)c2ccc(C(=O)N(CC)CC)cc2)C1
4. CCN(CC)S(=O)(=O)c1ccc(S(=O)(=O)N2CCC[C@@H](C(=O)N3CCN(C(=O)OC(C)(C)C)CC3)C2)cc1

300 nM
300 nM
100 nM
10 nM

Kindly give each listed record's IC50.
1. CCOC(=O)N1CCC[C@H](S(=O)(=O)c2ccc(S(=O)(=O)N(CC)CC)cc2)C1
2. CCOC(=O)C12CC(CN(S(=O)(=O)c3ccc(S(=O)(=O)N(CC)CC)cc3)C1)C2
3. CCN(CC)S(=O)(=O)c1ccc(S(=O)(=O)N2CCC[C@@H](C(=O)N[C@H]3CCN(C(=O)OC(C)(C)C)C3)C2)cc1
4. CCOC(=O)[C@@H]1CCCN(S(=O)(=O)c2ccc(S(=O)(=O)N(C)C)cc2)C1

1: > 10000 nM; 2: 400 nM; 3: 170 nM; 4: 300 nM

* * *

Experiment: Cytotoxicity against human UM16 cells assessed as inhibition of cell growth
Type: functional, cell-based
observationType: IC50
For clarity, give the value followed by its unit.

These recorded examples may help you get a feel for the data.
IC50 for CCOC(=O)C1CCCN(S(=O)(=O)c2ccc(S(=O)(=O)N(CC)CC)cc2)C1 (racemic) ? 580 nM

IC50 for "CCOC(=O)[C@H]1CCCN(S(=O)(=O)c2ccc(S(=O)(=O)N(CC)CC)cc2)C1" ? 9470 nM

Further cases:
IC50 for "CCOC(=O)[C@@H]1CCCN(S(=O)(=O)c2ccc(S(=O)(=O)N(CC)CC)cc2)C1" ? 310 nM
